Source of measurements: paper PMC6278378

biological target: T1, CD4 (Homo sapiens, UniProt P01730); assay: CD4 competitive binding assay (FITC anti-human CD4 antibody, SUP-T1 cells); conditions: transformed from % inhibition at 100 μM; presented as -ln
T1 construct: endogenous in cells; host or cells: SUP-T1 cells
Entries annotated with measured PInhibition (Experimental Data)
# output: bare number, no unit

Before answering, review these 2 worked examples.
> print(dat)
                                   molecule  assay.value
1  O=C(O)/C=C/c1c2ccc(=O)c(O)c-2oc2c(O)c(O)ccc12 [Compound 29]        4.763
2   O=c1oc2cc(O)ccc2c2c1CCCC2 [Compound 12]        2.745

Entry Cc1ccc(-c2cc(=O)c3cccc(CC(=O)O)c3o2)cc1 [Compound 22] , T1, CD4 (Homo sapiens, UniProt P01730) data, PInhibition (Experimental Data) value: 3.809
